The values you see were collected from patent US9162975B2.

- Tested on: ICR mice
- Assay Explanation: Hot-plate test
- Type: in vivo
- Run Conditions: withdrawal latency relative to vehicle control, 150 mg/kg po, hot plate 55±1° C.
Quantity Measured: Hot-plate test (150 mg/kg, 0.5 h, po) % Control (%)

In [3]: df
Out[3]:
                                   compound  observed_result
0  C[C@@H](OC(N)=O)[C@H](O)c1ccccc1Cl [Example 2]            129.8
1  C[C@H](OC(N)=O)[C@H](O)c1ccccc1Cl [Example 5]            145.5
2  CC(OC(N)=O)C(O)c1ccccc1Cl (racemic) [Example 3]            120.5

---

- Test system: ICR mice
- Assay Explanation: Writhing test (acetic acid)
- Format: in vivo
- Run Conditions: number of writhes relative to vehicle control, 20 mg/kg po, 0.6% acetic acid
Lab note: anything with Writhing test (20 mg/kg, 1 h, po) % Control below 70% is marked met; values at 70% or higher are marked not met.

>>> print(df.to_string())
                                   molecule  class_name
0  C[C@H](OC(N)=O)[C@@H](O)c1ccccc1I [Example 65]         met
1  C[C@@H](OC(N)=O)[C@@H](O)c1ccccc1Cl [Example 4]     not met
2  CC(OC(N)=O)C(O)c1ccccc1Cl (racemic) [Example 3]     not met
3  C[C@H](OC(N)=O)[C@H](O)c1ccccc1Cl [Example 5]         met
4  C[C@@H](OC(N)=O)[C@H](O)c1ccccc1Cl [Example 2]     not met
5  C[C@H](OC(N)=O)[C@@H](O)c1ccccc1F [Example 63]         met

---

- Tested on: ICR mice
- Assay Explanation: Hot-plate test
- Type: in vivo
- Run Conditions: withdrawal latency relative to vehicle control, 150 mg/kg po, hot plate 55±1° C.
- Description: To examine the pain relief effect of the phenyl carbamate compounds, a hot-plate test was conducted in general pain animal model referring to Current Protocols in Neuroscience; Behavioral Neuroscience Unit 8.9. ICR mice (male, 30-35 g; Orient Bio, Korea) were habituated before test in test room for 1 hour Animals were fasted 2 hr before administration of compounds. Each of Compound 1, 2, 3, 4, 5, 63, 65, and 67 was orally administered at the dose of 150 mg/kg, 10 ul/g, bw (n=7˜10/group). […]
Catalogue of molecules with associated Hot-plate test (150 mg/kg, 0.5 h, po) % Control
Quantity Measured: Hot-plate test (150 mg/kg, 0.5 h, po) % Control

                                smiles  observed_result
0    C[C@H](OC(N)=O)[C@@H](O)c1ccccc1F           183.1%
1  C[C@@H](OC(N)=O)[C@@H](O)c1ccccc1Cl           108.2%
2    C[C@H](OC(N)=O)[C@@H](O)c1ccccc1I           104.1%
3   CC[C@H](OC(N)=O)[C@@H](O)c1ccccc1I           131.4%
4   C[C@H](OC(N)=O)[C@@H](O)c1ccccc1Cl           135.7%

---

- Tested on: mice
- Assay Explanation: Measurement of neurotoxicity (rotarod)
- Type: in vivo
- Run Conditions: protective index, ratio of TD50 to ED50 in MES
Quantity Measured: PI(TD50/ED50 in MES)

>>> print(df.to_string())
                                 compound     quantity_measured  observed_result
0  C[C@H](OC(N)=O)[C@@H](O)c1c(Cl)cccc1Cl  PI(TD50/ED50 in MES)              5.1
1     CC(OC(N)=O)C(O)c1ccccc1Cl (racemic)  PI(TD50/ED50 in MES)             12.0
2       C[C@H](OC(N)=O)[C@H](O)c1ccccc1Cl  PI(TD50/ED50 in MES)              3.3
3      C[C@@H](OC(N)=O)[C@H](O)c1ccccc1Cl  PI(TD50/ED50 in MES)              7.3
